Source: patent US12577228B2

- measured_on: IgE-Tb / soluble IgE receptor FcεRIα with a Y131A mutation (Homo sapiens, UniProt P01854, N146Q/N252Q)
- Construct: fused on or other part: Terbium chelate (LanthaScreen amine-reactive) on IgE-Fc; Alexa Fluor 488 hydrazide on the oxidised glycans of sFcεRIα; Both are labels and no part of the key
- Sequence (P01854 104-427 N146Q/N252Q): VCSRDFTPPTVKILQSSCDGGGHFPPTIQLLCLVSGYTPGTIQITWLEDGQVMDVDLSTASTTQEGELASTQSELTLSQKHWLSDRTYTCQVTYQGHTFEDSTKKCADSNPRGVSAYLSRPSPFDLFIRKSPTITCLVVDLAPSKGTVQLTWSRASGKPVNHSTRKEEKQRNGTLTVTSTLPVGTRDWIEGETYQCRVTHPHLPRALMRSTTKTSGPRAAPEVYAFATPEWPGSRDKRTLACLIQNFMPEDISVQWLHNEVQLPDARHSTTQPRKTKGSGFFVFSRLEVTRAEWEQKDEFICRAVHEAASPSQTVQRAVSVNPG
- Sequence (P12319 26-201 Y156A partner): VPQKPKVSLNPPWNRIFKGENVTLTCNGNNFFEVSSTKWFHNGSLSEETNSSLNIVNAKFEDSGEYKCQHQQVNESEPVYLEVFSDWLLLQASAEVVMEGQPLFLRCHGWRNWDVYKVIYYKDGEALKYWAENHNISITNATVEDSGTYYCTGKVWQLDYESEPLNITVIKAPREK
- assay_procedure: in vitro FRET assay: binding of IgE-Tb to receptor FcεRIα-Y131A-AF488 and its inhibition by compounds
- condition_details: 5 nM IgE-Tb, 25 nM FcεRIα-Y131A-AF488, 2 hours at room temperature; read-out: FRET IC50 range
pIC50: −log10 of the molar value.
measurement_kind: pIC50

{"columns": ["molecule", "experimental_value"],
 "data": [
  ["CC(C)(C)CNC(=O)C1Cc2cc3nnc(C4CC4)cc3c(S(=O)(=O)NCC(C)(C)F)c2C1 (centres unmarked)", "5.70 to 7.00"],
  ["CC(C)(F)CNS(=O)(=O)c1c2c(cc3cnc(C4CC4)cc13)C[C@@H](Nc1ccc(Cl)nc1)C2", "7.30 to 8.00"],
  ["Cn1ccc(-c2ccc(N[C@@H]3Cc4cc5cnc(C6CC6)cc5c(S(=O)(=O)NCC(C)(C)F)c4C3)cn2)n1", "7.30 to 8.00"],
  ["CC(C)CNS(=O)(=O)c1c2c(cc3cnc(C4CC4)cc13)CC(Nc1nncn1CC1CC1)C2 (centres unmarked)", "7.30 to 8.00"],
  ["Cc1ccc(Oc2cncc(N[C@@H]3Cc4cc5cnc(C6CC6)cc5c(S(=O)(=O)NCC(C)(C)F)c4C3)c2)cn1", "8.00 to 9.00"]
]}
